# system.name: NLRP3 (Homo sapiens)
# Sequence (Q96P20 whole entry): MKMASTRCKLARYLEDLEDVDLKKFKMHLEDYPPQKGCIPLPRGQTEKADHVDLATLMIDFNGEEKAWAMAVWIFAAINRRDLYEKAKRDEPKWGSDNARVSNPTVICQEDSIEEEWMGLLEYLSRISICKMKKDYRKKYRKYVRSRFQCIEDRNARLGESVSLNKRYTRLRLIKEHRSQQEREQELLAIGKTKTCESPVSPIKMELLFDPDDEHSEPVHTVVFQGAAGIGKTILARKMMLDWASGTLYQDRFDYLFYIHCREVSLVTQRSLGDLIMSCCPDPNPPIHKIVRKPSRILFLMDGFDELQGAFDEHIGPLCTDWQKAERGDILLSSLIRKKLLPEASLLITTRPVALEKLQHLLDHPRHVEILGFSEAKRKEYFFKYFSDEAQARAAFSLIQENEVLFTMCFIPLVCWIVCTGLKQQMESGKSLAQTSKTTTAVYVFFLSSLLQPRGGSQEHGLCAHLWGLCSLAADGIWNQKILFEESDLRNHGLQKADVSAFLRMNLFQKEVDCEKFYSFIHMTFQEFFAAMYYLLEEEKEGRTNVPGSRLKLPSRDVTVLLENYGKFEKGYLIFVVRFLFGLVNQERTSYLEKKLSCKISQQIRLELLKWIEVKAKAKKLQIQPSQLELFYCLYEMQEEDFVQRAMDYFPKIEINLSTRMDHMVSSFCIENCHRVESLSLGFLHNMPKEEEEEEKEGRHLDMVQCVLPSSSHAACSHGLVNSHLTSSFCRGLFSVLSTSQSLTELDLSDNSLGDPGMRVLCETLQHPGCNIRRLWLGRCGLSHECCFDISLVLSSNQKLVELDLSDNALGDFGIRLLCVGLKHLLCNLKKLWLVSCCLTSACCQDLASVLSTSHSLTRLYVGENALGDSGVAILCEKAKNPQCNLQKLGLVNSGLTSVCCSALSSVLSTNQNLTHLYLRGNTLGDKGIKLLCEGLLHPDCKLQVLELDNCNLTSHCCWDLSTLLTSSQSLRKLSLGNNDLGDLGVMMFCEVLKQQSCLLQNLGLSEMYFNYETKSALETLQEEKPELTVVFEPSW
# protocol.notes: Human whole blood IL-1β release assay
# Type: cell-based
# Set-up: Human whole blood in Li-heparin tubes was obtained from healthy donors; from tissue; host or cells: human whole blood from healthy donors, LPS-primed, nigericin-stimulated
# cond: 1 μg/ml LPS, nigericin 10 μM, IL-1β by AlphaLisa
IC50 values for the molecules below.
Reply numerically in nM, unit not repeated.

// known answers, use as guide
CN1CCC[C@@H](Nc2nnc(-c3ccc(C(F)(F)F)cc3O)n(C)c2=O)C1: 15
CCN1CCC[C@@H](Nc2nnc(-c3ccc(OC(F)(F)F)cc3O)n(C)c2=O)C1: 14
CCN1CCC[C@@H](Nc2nnc(-c3ccc(C(C)(F)F)cc3O)n(C)c2=O)C1: 108
CN1CCC[C@@H](Nc2nnc(-c3ccc(OC(F)(F)F)cc3O)n(C)c2=O)C1: 35.2

Kindly review the next molecule as well.
### Prompt Please indicate recorded IC50 of CCN1CCC[C@@H](Nc2nnc(-c3ccc(OC(F)F)cc3O)n(C)c2=O)C1 measured with NLRP3 (Homo sapiens).
### Response 6.5
